SUBJECT OF TEST: Rap guanine nucleotide exchange factor 4 (Homo sapiens) (UniProt Q8WZA2)
Sequence (Q8WZA2 whole entry, looked up): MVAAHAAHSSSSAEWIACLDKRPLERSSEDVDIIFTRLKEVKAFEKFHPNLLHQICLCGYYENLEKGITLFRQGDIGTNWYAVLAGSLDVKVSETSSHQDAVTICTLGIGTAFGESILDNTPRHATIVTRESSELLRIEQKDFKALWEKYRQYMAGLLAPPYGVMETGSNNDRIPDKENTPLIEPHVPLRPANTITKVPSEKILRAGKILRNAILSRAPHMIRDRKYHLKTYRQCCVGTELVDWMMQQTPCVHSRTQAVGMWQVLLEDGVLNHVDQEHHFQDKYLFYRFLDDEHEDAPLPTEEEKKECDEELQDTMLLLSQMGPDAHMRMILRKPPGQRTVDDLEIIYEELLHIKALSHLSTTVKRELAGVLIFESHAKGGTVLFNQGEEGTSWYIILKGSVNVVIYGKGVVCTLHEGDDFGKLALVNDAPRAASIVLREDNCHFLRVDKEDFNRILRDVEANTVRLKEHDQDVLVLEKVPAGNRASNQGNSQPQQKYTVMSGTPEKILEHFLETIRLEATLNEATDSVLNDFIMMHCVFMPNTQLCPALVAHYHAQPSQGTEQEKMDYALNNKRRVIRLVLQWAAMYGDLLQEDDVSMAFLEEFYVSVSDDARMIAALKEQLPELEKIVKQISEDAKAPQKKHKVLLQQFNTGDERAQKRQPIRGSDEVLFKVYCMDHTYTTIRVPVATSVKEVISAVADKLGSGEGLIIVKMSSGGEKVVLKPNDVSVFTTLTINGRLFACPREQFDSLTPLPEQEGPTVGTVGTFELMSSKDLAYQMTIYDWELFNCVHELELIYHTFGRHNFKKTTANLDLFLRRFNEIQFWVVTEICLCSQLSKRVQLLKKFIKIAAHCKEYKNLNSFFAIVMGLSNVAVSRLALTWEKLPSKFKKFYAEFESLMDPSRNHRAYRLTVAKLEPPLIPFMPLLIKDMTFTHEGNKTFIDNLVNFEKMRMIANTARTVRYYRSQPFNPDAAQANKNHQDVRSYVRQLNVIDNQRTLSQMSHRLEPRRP
TEST SUMMARY: Validation qHTS for agonist of cAMP-regulated guanine nucleotide exchange factor 4 (EPAC2);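 note: exchange makes BODIPY-GDP fluorescence drop when released from Rap1B; series mostly up to about 150 µM; % is set by controls: 0 for no effect and ±100 for the full control effect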
CONDITION LABEL: EPAC2 Rap1B BODIPY-GDP exchange, fluorescence; active compounds read high
Hit rate of the full screen: of about 16,000 compounds, about 40 (0.2%) were called active. About 1% were inconclusive and are not listed. The sample holds actives, similar compounds and a random draw of the others, so the mix is not that of the screen.
REPORTED METRIC: activation (%)
Response body: numeric value in %, unit text excluded.

Read off the recorded activation for N#CC[C@H](Cc1ccccc1)N1CC[C@@H](NC(=O)OCc2ccccc2)CCC1=O
-28.7

Read off the recorded activation for O=C(NCc1ccncc1)c1cnn(-c2nccc(-c3cccs3)n2)c1C1CC1
-7.47

Read off the recorded activation for CC(C)c1c(O)ccc2c1CCC1[C@@](C)(C=O)CCC[C@@]21C (some centres not stated)
22.5

Read off the recorded activation for Cc1cnc(-n2ncc(C(=O)NCc3ccccn3)c2C2CC2)nc1-c1cccs1
-5.87

Read off the recorded activation for COc1ncc2nc(C)c(=O)n(Cc3cccs3)c2n1
-6.26

Read off the recorded activation for CC(N)(COP(=O)(O)O)C(=O)O (configuration not stated)
4.78

Read off the recorded activation for Cc1cccc(CNc2nc(-c3ccc4c(c3)OCO4)nc3ccccc23)c1
5.64

Read off the recorded activation for COCc1ccc(CN2CCOc3c(O)cc(-c4cc(C)c5ccc(F)cc5n4)cc3C2)o1
8.6

Read off the recorded activation for Cc1noc(C)c1-c1nccc(NC2CC2)n1
-2.86

Read off the recorded activation for CN(C)c1ncnc2ccc(-c3cccc(C#N)c3)cc12
-0.384

Read off the recorded activation for COc1cccc(Cn2c(=O)c(C)nc3cnc(N4CCOCC4)nc32)c1
1.39

Read off the recorded activation for COc1cccc(-c2nc(N3CCN(C)CC3)c3ccccc3n2)c1
-6.1

Read off the recorded activation for COc1cccc(CNC(=O)c2c(OC)cc(=O)n3c2CCN(C(=O)c2cc(C)ccc2C)CC3)c1
-2.82

Read off the recorded activation for FC(F)(F)C(Cl)Br (configuration not stated)
-29.1

Read off the recorded activation for O=C(C[N+]12CCCc3cccc(c31)CCC2)c1ccccc1
-2.28

Read off the recorded activation for O=C(O)c1cccc(/C=C2/C[C@@H]3[C@@H](/C=C/[C@@H](O)C4CCCCC4)[C@H](O)C[C@@H]3O2)c1
15.9

Read off the recorded activation for COc1ccccc1CN1[C@@H](CC(=O)O)c2ccccc2S1(=O)=O
-19.4

Read off the recorded activation for CC(C)CCCC(C)C1CCC2C3C(=O)C=C4CC(O)CC[C@@]4(C)C3CC[C@@]12C (some centres not stated)
-16

Read off the recorded activation for CC(=O)OCC1=C(C(=O)O)N2C(=O)C(NC(=O)CSc3ccncc3)[C@@H]2SC1 (some centres not stated)
-16.2

Read off the recorded activation for CCCCCCC[n+]1ccc(/C=C/c2c(C)[nH]c3ccccc23)c2ccccc21
-18.3

Read off the recorded activation for CO[C@H]1[C@H](NC(=O)c2ccsc2)c2ccccc2C12CCN(Cc1c(O)ccc3ccccc13)CC2
-7.57

Read off the recorded activation for O=S1(=O)CCOCCCN1Cc1cccc(F)c1
-1.25
